Tested System: T1, human amylin receptor (amylin 3(a) receptor: human calcitonin receptor with RAMP-3) (human, UniProt P30988 25-474; O60896 24-148, limits assumed)
T1 sequence (looked up) 1: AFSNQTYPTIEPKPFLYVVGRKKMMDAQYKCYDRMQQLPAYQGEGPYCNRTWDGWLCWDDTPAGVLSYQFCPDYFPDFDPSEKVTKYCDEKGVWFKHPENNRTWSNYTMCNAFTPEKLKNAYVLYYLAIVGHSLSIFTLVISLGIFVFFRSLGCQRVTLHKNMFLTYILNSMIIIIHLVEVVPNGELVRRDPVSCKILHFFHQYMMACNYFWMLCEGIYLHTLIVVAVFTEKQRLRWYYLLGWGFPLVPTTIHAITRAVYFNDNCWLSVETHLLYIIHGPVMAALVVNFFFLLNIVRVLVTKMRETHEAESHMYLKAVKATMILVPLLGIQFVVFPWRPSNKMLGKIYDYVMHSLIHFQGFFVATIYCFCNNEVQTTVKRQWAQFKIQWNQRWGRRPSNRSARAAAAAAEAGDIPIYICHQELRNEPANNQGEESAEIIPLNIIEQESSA
T1 sequence (looked up) 2: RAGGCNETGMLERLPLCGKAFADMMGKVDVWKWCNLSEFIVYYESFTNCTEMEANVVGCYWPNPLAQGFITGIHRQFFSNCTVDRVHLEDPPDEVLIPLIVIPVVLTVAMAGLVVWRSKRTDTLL
Assay Overview: cell-based or functional assay
Numbered stars: 1 amine (or outer) side, 2 acyl side, 3 side chain; on linkers, the order of the positions; unused ones are H or OH. Bridge positions count the residues as written; N and C are the ends. Square brackets hold non-standard residues; d marks the D form. Side chains are listed from the residue outwards. Ends that are not written are not given here. * marks the point of attachment. C20 diacid = O=C(O)CCCCCCCCCCCCCCCCCCC(=O)*; γGlu = O=C(O)[C@H](CCC(=O)[*:2])N[*:1]
Measured Quantity: hAmylin-R funct. EC50 (pM)

These recorded examples may help you get a feel for the data.
{"Binder": "K([γGlu-γGlu-C20 diacid])CNTATCATQRLAEFLRHSSPNFGAIPSSTNVGPETP-NH2 (disulfide 2-7 (inferred))", "Result Value": 132}
{"Binder": "K([γGlu-C20 diacid])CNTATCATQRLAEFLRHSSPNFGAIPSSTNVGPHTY-NH2 (disulfide 2-7 (inferred))", "Result Value": 101}

[I] K([γGlu-γGlu-C20 diacid])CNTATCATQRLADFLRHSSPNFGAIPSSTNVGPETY-NH2 (disulfide 2-7 (inferred))
[II] K([γGlu-γGlu-C20 diacid])CNTATCATQRLASFLRHSSPNFGAIPSSTNVGPETY-NH2 (disulfide 2-7 (inferred), also called compound 120)
[III] K([γGlu-γGlu-C20 diacid])CNTATCATQRLA[dD]FLRHSSPNFGAIPSSTNVGSRTY-NH2 (disulfide 2-7 (inferred))
Order these by hAmylin-R funct. EC50 (pM), descending, and give the full ranking. Give the labels in the order requested.
III, I, II
(III: 383 pM, I: 159 pM, II: 109 pM)
